# assay_remarks: clinical
# setup_conditions: human, in vivo, Docetaxel AUC0–24, gMean
reported_endpoint: AUC(0-t) (ng·h/mL)
Answer format: numeric, ng·h/mL implied, no suffix.

Read the entry CC(=O)O[C@@]12CO[C@@H]1C[C@H](O)[C@@]1(C)C(=O)[C@H](O)C3=C(C)[C@@H](OC(=O)[C@H](O)[C@@H](NC(=O)OC(C)(C)C)c4ccccc4)C[C@@](O)([C@@H](OC(=O)c4ccccc4)[C@H]21)C3(C)C [docetaxel] and write its reported AUC(0-t).
2630

* * *

# assay_remarks: clinical
# setup_conditions: human, in vivo, Afatinib Vz/F, gMean
reported_endpoint: Vd/F
Record the result as a number with its unit.

Read the entry CN(C)C/C=C/C(=O)Nc1cc2c(Nc3ccc(F)c(Cl)c3)ncnc2cc1O[C@H]1CCOC1 and write its reported Vd/F.
1500 L

* * *

# assay_remarks: clinical
# setup_conditions: human, in vivo, Docetaxel CL, gMean
reported_endpoint: clearance (mL/min)
Answer format: numeric, mL/min implied, no suffix.

Read the entry CC(=O)O[C@@]12CO[C@@H]1C[C@H](O)[C@@]1(C)C(=O)[C@H](O)C3=C(C)[C@@H](OC(=O)[C@H](O)[C@@H](NC(=O)OC(C)(C)C)c4ccccc4)C[C@@](O)([C@@H](OC(=O)c4ccccc4)[C@H]21)C3(C)C [docetaxel] and write its reported clearance.
712

* * *

# assay_remarks: clinical
# setup_conditions: human, in vivo, Docetaxel VSS, gMean
reported_endpoint: Vd (L)
Answer format: numeric, L implied, no suffix.

Read the entry CC(=O)O[C@@]12CO[C@@H]1C[C@H](O)[C@@]1(C)C(=O)[C@H](O)C3=C(C)[C@@H](OC(=O)[C@H](O)[C@@H](NC(=O)OC(C)(C)C)c4ccccc4)C[C@@](O)([C@@H](OC(=O)c4ccccc4)[C@H]21)C3(C)C [docetaxel] and write its reported Vd.
488

* * *

# assay_remarks: Plasma pharmacokinetics (HPLC tandem-mass spectrometry)
# setup_conditions: human, in vivo, Afatinib tmax, median, MTD group, treatment cycle 1 (n = 13)
reported_endpoint: Tmax

Read the entry CN(C)C/C=C/C(=O)Nc1cc2c(Nc3ccc(F)c(Cl)c3)ncnc2cc1O[C@H]1CCOC1 [afatinib] and write its reported Tmax.
3 h

* * *

# assay_remarks: clinical
# setup_conditions: human, in vivo, Afatinib Cmax, gMean
reported_endpoint: Cmax (ng/mL)
Answer format: numeric, ng/mL implied, no suffix.

Read the entry CN(C)C/C=C/C(=O)Nc1cc2c(Nc3ccc(F)c(Cl)c3)ncnc2cc1O[C@H]1CCOC1 [afatinib] and write its reported Cmax.
71.4

* * *

# assay_remarks: clinical
# setup_conditions: human, in vivo
reported_endpoint: Tmax (h)
Answer format: numeric, h implied, no suffix.

Read the entry CN(C)C/C=C/C(=O)Nc1cc2c(Nc3ccc(F)c(Cl)c3)ncnc2cc1O[C@H]1CCOC1 and write its reported Tmax.
4.03
